Overview of recorded loss of binding vs wild type for various binders
experimental-system: T1, hiR2-FL-G546A-T7 (human, UniProt Q6PJF5 1-856)
T1 sequence: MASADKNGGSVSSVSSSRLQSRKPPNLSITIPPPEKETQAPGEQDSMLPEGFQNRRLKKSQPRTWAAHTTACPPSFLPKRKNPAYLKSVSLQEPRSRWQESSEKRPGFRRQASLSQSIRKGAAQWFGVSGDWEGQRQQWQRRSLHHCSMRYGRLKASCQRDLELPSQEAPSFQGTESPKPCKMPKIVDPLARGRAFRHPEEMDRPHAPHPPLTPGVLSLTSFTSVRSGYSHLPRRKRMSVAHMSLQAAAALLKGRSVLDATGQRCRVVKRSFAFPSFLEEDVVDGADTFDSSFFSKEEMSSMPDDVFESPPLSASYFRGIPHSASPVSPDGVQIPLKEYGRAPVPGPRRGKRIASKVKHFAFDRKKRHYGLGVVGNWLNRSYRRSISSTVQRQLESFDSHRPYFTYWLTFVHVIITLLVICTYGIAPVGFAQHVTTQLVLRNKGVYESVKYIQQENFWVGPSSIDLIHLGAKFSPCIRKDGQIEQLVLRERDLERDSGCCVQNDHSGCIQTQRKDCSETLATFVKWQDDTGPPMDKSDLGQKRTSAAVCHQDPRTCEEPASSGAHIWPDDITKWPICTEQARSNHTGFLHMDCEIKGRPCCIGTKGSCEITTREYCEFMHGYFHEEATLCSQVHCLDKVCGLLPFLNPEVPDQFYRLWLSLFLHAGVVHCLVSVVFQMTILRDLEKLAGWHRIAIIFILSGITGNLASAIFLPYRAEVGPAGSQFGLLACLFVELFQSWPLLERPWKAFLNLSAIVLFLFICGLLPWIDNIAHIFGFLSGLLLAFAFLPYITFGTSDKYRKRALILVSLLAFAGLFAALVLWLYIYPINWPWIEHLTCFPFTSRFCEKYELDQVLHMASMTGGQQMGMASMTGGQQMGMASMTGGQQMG
test-details: FACS, MEF-DKO cells, 3 µg/ml

Past entries and their recorded results:
antibody 5 (antibody, V domains shown, mouse IgG, kappa light chain; also called clone #5; purified antibody 5) VH: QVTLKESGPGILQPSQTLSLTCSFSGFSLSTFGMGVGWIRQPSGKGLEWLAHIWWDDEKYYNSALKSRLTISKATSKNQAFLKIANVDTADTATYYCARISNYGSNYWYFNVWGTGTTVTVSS VL: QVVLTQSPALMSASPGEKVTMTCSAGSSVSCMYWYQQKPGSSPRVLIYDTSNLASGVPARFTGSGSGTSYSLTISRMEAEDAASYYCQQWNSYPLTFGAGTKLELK ... ≥ 95%
antibody 43 (antibody, V domains shown, mouse IgG, kappa light chain; also called clone #43; purified antibody 43) VH: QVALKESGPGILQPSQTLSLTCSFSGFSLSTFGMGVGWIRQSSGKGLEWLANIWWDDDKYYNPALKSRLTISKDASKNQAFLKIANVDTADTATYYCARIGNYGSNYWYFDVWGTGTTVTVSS VL: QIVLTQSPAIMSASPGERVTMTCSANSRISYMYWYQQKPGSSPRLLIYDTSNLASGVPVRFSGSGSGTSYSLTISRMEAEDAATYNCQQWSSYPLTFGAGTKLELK ... ≥ 60%
antibody 50 (antibody, V domains shown, mouse IgG, kappa light chain; also called clone #50; purified antibody 50) VH: QVQLQQSGAELVRPGASVKVSCKASGYAFSNYLIEWVKQRPGQGLEWIGVINPGSGFTKYNEKFKGKATLTADKSSSTAYMQLSSLTSEDSAVYFCARGLYRAMDYWGQGTSVTVSS VL: DIQMTQSPASQSASLGESVTITCLASQTIGTWLAWYQQKPGKSPQLLIYAAASLADGVPSRFSGGGSGTKFSFKISSLQAEDFVNYYCQQIYSTPYTFGGGTKLEIK ... ≥ 30%

Here is another binder to look at.
For the binder shown here, antibody 44 (antibody, V domains shown, mouse IgG, kappa light chain; also called clone #44; purified antibody 44) VH: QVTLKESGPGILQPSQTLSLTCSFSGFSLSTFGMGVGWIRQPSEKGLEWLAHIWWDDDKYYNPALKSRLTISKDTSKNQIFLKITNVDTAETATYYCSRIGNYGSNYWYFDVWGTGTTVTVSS VL: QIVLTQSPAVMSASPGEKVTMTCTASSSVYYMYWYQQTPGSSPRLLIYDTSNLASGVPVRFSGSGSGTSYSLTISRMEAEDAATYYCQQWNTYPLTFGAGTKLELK , give the reported loss of binding vs wild type.
≥ 60%
